Species: Mus musculus
Assay: Skin irritant activity in NMRI mouse ear assessed as irritancy after 24 hrs
Type: ADME, organism-based
Conditions: in vivo
result-type: Activity

molecule	reading
C=C(C)[C@]12C[C@@H](C)[C@@]34O[C@](/C=C/CCCCCCCCCCCCC)(O[C@@H]1[C@@H]3[C@@H]1O[C@]1(COC(=O)CCCCCCCCCCCCCCC)[C@@H](O)[C@]1(O)C(=O)C(C)=C[C@H]14)O2	6.3 nmol⁻¹
C=C(C)[C@@]12C[C@@H](C)[C@@]34O[C@@]5(/C=C/CCCCCCCCCCCC(C)(O)[C@H]6[C@H](C)C(=O)[C@@](O)([C@H](O)[C@@]7(CO)O[C@H]7[C@H]3[C@H]1O5)[C@@H]64)O2 (some centres undefined)	6 nmol⁻¹
C=C(C)[C@]12C[C@@H](C)[C@@]34O[C@](/C=C\C=C\CCCCCCCCCC)(O[C@@H]1[C@@H]3[C@@H]1O[C@]1(CO)[C@@H](O)[C@]1(O)C(=O)C(C)=C[C@H]14)O2	50 nmol⁻¹
C=C(C)[C@]12O[C@@]34/C=C/CCCCCCCCCCC[C@H](C)[C@H]5[C@H](C)C(=O)[C@@]6(O)[C@H](O)[C@@]7(CO)O[C@H]7[C@@H]([C@H]1O3)[C@](O4)([C@H](C)[C@H]2OC(C)=O)[C@H]56	100 nmol⁻¹
